test: Half life in Sprague-Dawley rat at 10 mg/kg, iv administered for 12 hrs by HPLC analysis; type: ADME, organism-based; settings: in vivo
observed-property: half-life

Q: Which half-life reading was recorded for the compound COc1cc2c(NCc3c(C)cc(C)[nH]c3=O)nc(N3CCC(F)(F)CC3)nc2cc1OCCCN1CCCC1 ?
Result: 3.47 h

* * *

experiment: Oral bioavailability in Sprague-Dawley rat at 30 mg/kg administered for 24 hrs by HPLC analysis; type: ADME, organism-based; details: in vivo
observed-property: bioavailability (%)
A number alone suffices; assume %.

Q: Which bioavailability reading was recorded for the molecule COc1cc2c(NCc3c(C)cc(C)[nH]c3=O)nc(N3CCC(F)(F)CC3)nc2cc1OCCCN1CCCC1 ?
Result: 92

* * *

experiment: Apparent volume of distribution in Sprague-Dawley rat at 10 mg/kg, iv administered for 12 hrs by HPLC analysis; assay type: ADME, organism-based; conditions: in vivo, read-out: Vc
observed-property: Vd (L/kg)
A number alone suffices; assume L/kg.

Q: Which Vd reading was recorded for the molecule COc1cc2c(NCc3c(C)cc(C)[nH]c3=O)nc(N3CCC(F)(F)CC3)nc2cc1OCCCN1CCCC1 ?
Result: 4.54

* * *

assay: Half life in Sprague-Dawley rat at 30 mg/kg, po administered for 24 hrs by HPLC analysis; type: ADME, organism-based; conditions: in vivo
observed-property: half-life (h)
A number alone suffices; assume h.

Q: Which half-life reading was recorded for the compound COc1cc2c(NCc3c(C)cc(C)[nH]c3=O)nc(N3CCC(F)(F)CC3)nc2cc1OCCCN1CCCC1 ?
Result: 4.02

* * *

observed-property: pIC50
Note on pIC50: it is the negative log10 of concentration, concentration in mol/L.

Q: // map COc1cc2c(NCc3c(C)cc(C)[nH]c3=O)nc(N3CCC(F)(F)CC3)nc2cc1OCCCN1CCCC1 to recorded pIC50 (system: Histone-lysine N-methyltransferase EZH2 (Homo sapiens, UniProt Q15910))
Sequence (Q15910 whole entry): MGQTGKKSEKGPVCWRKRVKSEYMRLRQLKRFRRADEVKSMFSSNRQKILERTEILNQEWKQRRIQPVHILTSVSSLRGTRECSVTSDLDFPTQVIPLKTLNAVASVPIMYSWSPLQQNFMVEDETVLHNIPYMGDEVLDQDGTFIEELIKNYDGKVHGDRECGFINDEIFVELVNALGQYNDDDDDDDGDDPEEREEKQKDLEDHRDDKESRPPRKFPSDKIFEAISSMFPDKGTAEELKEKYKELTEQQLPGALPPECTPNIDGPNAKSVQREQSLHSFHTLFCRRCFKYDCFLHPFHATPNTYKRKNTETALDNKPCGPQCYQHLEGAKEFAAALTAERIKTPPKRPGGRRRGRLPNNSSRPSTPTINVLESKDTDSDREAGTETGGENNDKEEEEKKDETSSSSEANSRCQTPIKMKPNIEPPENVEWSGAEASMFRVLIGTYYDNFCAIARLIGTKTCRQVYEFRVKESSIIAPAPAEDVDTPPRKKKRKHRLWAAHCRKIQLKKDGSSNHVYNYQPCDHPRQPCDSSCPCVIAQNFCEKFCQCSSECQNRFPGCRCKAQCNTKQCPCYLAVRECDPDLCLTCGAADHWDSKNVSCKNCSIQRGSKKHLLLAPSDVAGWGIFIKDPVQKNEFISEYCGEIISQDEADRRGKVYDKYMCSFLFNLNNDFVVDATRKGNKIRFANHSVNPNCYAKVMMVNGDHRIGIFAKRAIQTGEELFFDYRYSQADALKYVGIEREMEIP
Result: 8.36

* * *

assay: Cytotoxicity against human L02 cells assessed as reduction in cell viability incubated for 72 hrs by MTT assay; format: toxicity, cell-based
observed-property: CC50 at 72 h

Q: Which CC50 at 72 h reading was recorded for the compound COc1cc2c(NCc3c(C)cc(C)[nH]c3=O)nc(N3CCC(F)(F)CC3)nc2cc1OCCCN1CCCC1 ?
Result: > 100 µM

* * *

assay: Clearance in Sprague-Dawley rat at 30 mg/kg, po administered for 24 hrs by HPLC analysis; assay type: ADME, organism-based; conditions: in vivo
observed-property: CL/F (mL/min/kg)
A number alone suffices; assume mL/min/kg.

Q: Which CL/F reading was recorded for the compound COc1cc2c(NCc3c(C)cc(C)[nH]c3=O)nc(N3CCC(F)(F)CC3)nc2cc1OCCCN1CCCC1 ?
Result: 59.7

* * *

assay: Plasma protein binding in Kunming mouse by equilibrium dialysis method; assay type: ADME, cell-free; settings: read-out: PPB (converted)
observed-property: fraction unbound
# print the numeric value only

Q: Which fraction unbound reading was recorded for the compound COc1cc2c(NCc3c(C)cc(C)[nH]c3=O)nc(N3CCC(F)(F)CC3)nc2cc1OCCCN1CCCC1 ?
Result: 0.186

* * *

assay: Tmax in Sprague-Dawley rat at 30 mg/kg, po administered for 24 hrs by HPLC analysis; format: ADME, organism-based; details: in vivo
observed-property: Tmax (min)
A number alone suffices; assume min.

Q: Which Tmax reading was recorded for the compound COc1cc2c(NCc3c(C)cc(C)[nH]c3=O)nc(N3CCC(F)(F)CC3)nc2cc1OCCCN1CCCC1 ?
Result: 41.4

* * *

tested on: SW982; experiment: Cytotoxicity against human SW982 cells assessed as reduction in cell viability incubated for 72 hrs by MTT assay; format: functional
Task for the reader: assign each of the following compounds its reported CC50.
A number alone suffices; assume µM.

Q: // map COc1cc2c(NCc3c(C)cc(C)[nH]c3=O)nc(N3CCC(OC)CC3)nc2cc1OCCCN1CCCC1 to recorded CC50 (system: SW982)
Result: 61.6

Q: // map CCN(CC)c1nc(NCc2c(C)cc(C)[nH]c2=O)c2cc(OC)c(OCCCN3CCCC3)cc2n1 to recorded CC50 (system: SW982)
Result: 87.7

Q: // map COc1cc2c(NCc3c(C)cc(C)[nH]c3=O)nc(N3CCCC3)nc2cc1OCCCN1CCCC1 to recorded CC50 (system: SW982)
Result: 90.2

Q: // map COc1cc2nc(N3CCOCC3)nc(NCc3c(C)cc(C)[nH]c3=O)c2cc1OC to recorded CC50 (system: SW982)
Result: 89.2

The origin of these recorded values is ChEMBL document CHEMBL5338739.
